- testProtocol: Physicochemical properties of delmopinol (pKa, solubility of base)
experimentalReadout: pKa
Please respond with just the number, no unit label.

## Input Quick one: pKa of CCCC(CCC)CCCC1COCCN1CCO (stereo not shown) [delmopinol] ?
## Output 7.1
